Test system: HS 578T breast
Experiment: NCI tumour cell line growth inhibition, 48 h; in the data active = GI50 below about 0.43 µM; inactive = the rest
Outcomes: yes (active), no (inactive)

{"compound": "Cn1cc(-c2nc(-c3cn(C)c4ncccc34)cs2)c2cc(F)ccc21", "cat": "no"}
{"compound": "CCOC(=O)C1=C(N)Oc2cc(OC)ccc2C1c1ccc(F)c(F)c1 (stereo not given)", "cat": "no"}
{"compound": "OCCCNC(=S)Nc1ccc(-c2nc3ccccc3s2)cc1", "cat": "no"}
{"compound": "CCOC(=O)c1c2c(n3cccc(F)c13)C(=O)c1ncccc1C2=O", "cat": "yes"}
{"compound": "COc1ccc(/C=C2\\CCCC3=C2N=C2SC=NN2C3c2ccc(OC)c(OC)c2)cc1OC (stereo not given)", "cat": "no"}
{"compound": "COc1ccc2oc(-c3ccc(Cl)cc3)c(N3CCN(C)CC3)c2c1", "cat": "no"}
{"compound": "COc1ccc2c(c1)c(=O)oc1cc(OC/C(=N\\O)c3ccc(F)cc3)ccc12", "cat": "no"}
{"compound": "O=C1C=CC(=O)N1CCCCCCCCCCN1C(=O)C=CC1=O", "cat": "no"}
{"compound": "Cn1cc(C2=C(c3cccc(NCC(O)CO)c3)C(=O)NC2=O)c2cc(Cl)ccc21 (stereo not given)", "cat": "yes"}
{"compound": "COc1ccc2c(c1)N(CCO)C1=C(C(=O)OC1)C2c1cccc(Br)c1 (stereo not given)", "cat": "yes"}

The origin of these recorded values is PubChem BioAssay (NCI).
